system: UACC-257 melanoma; experiment: NCI tumour cell line growth inhibition, 48 h
Each entry below lists one item and its recorded TGI value.

Solved entries:
                                   molecule  measurement_label  endpoint_result
0  CCCC#CCOC(=O)c1cc([N+](=O)[O-])cc([N+](=O)[O-])c1                TGI         > 100 µM
1  COC(=O)C1=COc2c(n(C)c3ccccc23)-c2ccccc21                TGI         > 100 µM
2  CC#CCCCC1(C)CCCNC1=S (stereo unspecified)                TGI          > 10 µM
3  CN(C)Cc1cc(C(=O)/C=C/c2ccc(F)cc2)cc(CN(C)C)c1O                TGI            31 µM

Can you share its TGI? I mean this molecule: NC(=O)C1CCCN1C(=O)N(CCCl)N=O (stereo unspecified)
> 100 µM

Can you share its TGI? I mean this molecule: CC(=O)NC1=C(Sc2ccc(Cl)cc2)C(=O)c2ccccc2C1=O
17.3 µM

Can you share its TGI? I mean this molecule: CC(=O)N(C(C)=O)n1nc2c(n1)C(=O)c1ccccc1C2=O
> 100 µM

Can you share its TGI? I mean this molecule: COc1ccc2[nH]c(O)c(/C=c3/ccc4c(c3)N=C(c3ccc(F)cc3)N=4)c2c1
15.3 µM

Can you share its TGI? I mean this molecule: CN1C(=O)C(=CN(C)c2ccccc2)C(=O)N(C)C1=O
> 100 µM

Can you share its TGI? I mean this molecule: Cc1ccc(NC(=O)/C(=N\NC(N)=O)c2c(O)c3ccccc3[nH]c2=O)cc1
> 100 µM

Can you share its TGI? I mean this molecule: CCN(CC)CC(=O)Nc1ccc2c(c1)C(=O)c1ccc(NC(=O)CN(CC)CC)cc1C2=O
97.4 µM

Can you share its TGI? I mean this molecule: Cn1c(C(C)(C)OC(=O)Oc2ccccc2)cnc1[N+](=O)[O-]
> 100 µM

Can you share its TGI? I mean this molecule: COC(=O)c1ccc(C)cc1CC1Cc2c(C)cccc2C1=O (stereo unspecified)
49 µM

* * *

tested on: COLO 205 colon; assay: NCI tumour cell line growth inhibition, 48 h; in the data active = GI50 below about 0.43 µM; inactive = the rest
Outcomes you can answer with include only these: active, inactive

Worked examples follow.
compound	tested_system	assigned_category
CCN(Cc1cccc(F)c1F)c1ccc(CO)c(Cl)c1	COLO 205 colon	inactive
Cc1ccc(C(=O)N=Nc2c(O)[nH]c3ccc(Cl)cc23)cc1	COLO 205 colon	inactive
CN(C)CCNc1nc2ccccc2c2occc12	COLO 205 colon	inactive
Cc1cc(S(N)(=O)=O)c(S/C(=N\Nc2ccc([N+](=O)[O-])cc2)c2ccc3ccccc3c2)cc1Cl	COLO 205 colon	inactive
O=C(COc1ccc(-c2nc3cc(Cl)c(Cl)cc3[nH]2)cc1)N=Nc1c(O)[nH]c2ccccc12	COLO 205 colon	inactive
COc1ccc(-c2nnc(Nc3nc(O)c(C4=c5cc(F)ccc5=NC4=O)s3)o2)cc1	COLO 205 colon	inactive
COc1ccc(C(=O)OC2C(OC3C(O)COC(O[C@H]4C[C@H]5[C@@H]6CC=C7C[C@@H](O)CC[C@]7(C)[C@H]6CC[C@]5(C)[C@H]4[C@H](C)C(=O)CCC(C)C)C3OC(C)=O)OCC(O)C2O)cc1 (stereo not given in full)	COLO 205 colon	active
CC1(C)CC(=O)c2c(ccc(C(=O)C[C@@H](N)CO)c2N)O1	COLO 205 colon	inactive
CN(C)c1ccc(/C=N/NC(=O)c2cccc3ccccc23)c(Cl)c1	COLO 205 colon	inactive
CC(=O)c1ccc2c(c1)N(CCCN(C)C)c1ccccc1S2	COLO 205 colon	inactive

Record lookup: outcome of this test for N=C(N)SCc1ccc([N+](=O)[O-])cc1[N+](=O)[O-] ?
inactive

Record lookup: outcome of this test for CCN1C(=O)N(CC)C2C1NN=c1s/c(=C\c3cccc([N+](=O)[O-])c3)c(=O)n12 (stereo not given) ?
active

Record lookup: outcome of this test for Oc1ccccc1C=Nc1ccccc1N=Cc1ccccc1O.[Cu+2] ?
inactive

Record lookup: outcome of this test for COc1ccc(-c2nc(-c3nc4ccc(C(F)(F)F)cc4[nH]3)c3ccccn23)cc1 ?
inactive

Record lookup: outcome of this test for Clc1ccc(N2CCC(N3CCCC3)CC2)cc1-c1nc2ccccc2[nH]1 ?
inactive

* * *

tested on: M14 melanoma; assay: NCI tumour cell line growth inhibition, 48 h
Each entry below lists one item and its recorded TGI value.

Solved entries:
>>> df
                                   compound  endpoint_result
0  O=[N+]([O-])c1ccc(O)c(C=NCC2CCCN3CCCCC23)c1 (stereo unspecified)          53.2 µM
1              Cc1ccc2c(CC(=O)O)cc(=O)oc2c1         > 100 µM
2           Nc1c2c(nc3ccccc13)CCCc1ccccc1-2          21.6 µM
3  O=P1(Oc2ccccc2)NCc2ncccc2O1 (stereo unspecified)         > 100 µM

Can you share its TGI? I mean this compound: COc1cc2ccc(CC(N)=O)cc2cc1OC
> 100 µM

Can you share its TGI? I mean this compound: Cc1ccc([N+](=O)[O-])cc1S(=O)(=O)Nc1ccc(C2=NN(S(=O)(=O)c3cc([N+](=O)[O-])ccc3C)C(c3ccco3)C2)cc1 (stereo unspecified)
> 100 µM

* * *

test system: SNB-75 CNS; assay: NCI tumour cell line growth inhibition, 48 h
measurement_label: TGI

Solved entries:
>>> df
                                   molecule  measurement_label  endpoint_result
0  CC(=O)OC1OC(c2ccoc2)C[C@@]12C1CCC3O[C@]3(C)[C@]1(C)C[C@H](OC(C)=O)[C@H]2C (stereo not given in full)                TGI          > 75 µM
1       CNc1nc2c(C)ccc3[nH]c(N(C)C)nc3c-2n1                TGI         > 100 µM
2  CC(=O)C1=C(C)N(c2ccccc2)C2(O)C=CC(=O)C3=C(O)c4ccccc4C(=O)C312 (stereo not given)                TGI         > 100 µM
3  Cc1[nH]c(=O)nc(N(CCO)/N=C/c2ccc(Cl)cc2)c1C(=O)Nc1ccc(Cl)cc1                TGI         > 100 µM

Here is another molecule to look at.
Can you share its TGI? I mean this molecule: CC12CCC(O)CC1=CCC1C2CCC2(C)C(c3cccnc3)=CCC12 (stereo not given)
> 100 µM

* * *

Each entry below lists one item and its recorded TGI value.
system: SF-295 CNS; experiment: NCI tumour cell line growth inhibition, 48 h

Solved entries:
In [3]: df
Out[3]:
                      smiles_representation  endpoint_result
0  CCOC(=O)c1nc2cc(C(F)(F)F)ccc2[n+]([O-])c1C         > 100 µM
1  NC(=O)CNC(=O)[C@@H]1C[C@@H](OCCC(=O)O)CN1C(=O)OCc1ccccc1         > 100 µM

Can you share its TGI? I mean this compound: COc1ccc(-c2nc(-c3nc4ccc(C(F)(F)F)cc4[nH]3)c3ccccn23)cc1
> 100 µM

* * *

system: KM12 colon; test: NCI tumour cell line growth inhibition, 48 h
Each entry below lists one item and its recorded TGI value.
Record the value in µM, omitting the unit from your answer.

compound	tested_system	TGI [µM]
CCCCS(=O)CC(CO)NC(=O)/C=C/c1c(C)[nH]c(=O)[nH]c1=O (centres undefined)	KM12 colon	49.7

Can you share its TGI? I mean this compound: CCc1ncnc2cc(OCC3CO3)c(OC)cc12 (centres undefined)
49.3

Can you share its TGI? I mean this compound: Cc1cc(S(N)(=O)=O)c(S/C(=N\Nc2ccc([N+](=O)[O-])cc2)c2ccc3ccccc3c2)cc1Cl
99

Can you share its TGI? I mean this compound: Cn1c2ccccc2c2nnc(NNCc3ccccn3)nc21
14.2

* * *

tested on: BT-549 breast; assay: NCI tumour cell line growth inhibition, 48 h
Each entry below lists one item and its recorded TGI value.

                                   molecule  endpoint_result
0  N#C/C(=C\c1cccc2cnccc12)N1N=NC2C=CC=CC21 (configuration not stated)         > 100 µM
1  NC(=O)C1CCCN1C(=O)N(CCCl)N=O (configuration not stated)         > 100 µM
2       CNc1nc2c(C)ccc3[nH]c(N(C)C)nc3c-2n1         > 100 µM
3  COc1ccc(/C(=N/O)c2cc(OC)c(OC)c(OC)c2)c(OC)c1N         > 100 µM
4  COc1cc2c(cc1O)C(c1cc(O)c(O)c(OC)c1)C(O)(C(=O)O)C(CO)C2O (configuration not stated)         > 100 µM
5  CNC(=O)c1cc2c(Oc3ccc(NC(=S)NC(=O)Cc4ccccc4)cc3F)ccnc2cc1OC        > 28.7 µM
6               CN(C)CCNc1nc2ccccc2c2occc12         > 100 µM
7  CN1CCN(c2ccc(C(=O)Nc3cccc(C#Cc4cccc5[nH]nc(N)c45)c3)cc2C(F)(F)F)CC1          7.68 µM
8  CCCCCSC1C2C(=O)C(Br)=CC13CCNc1c(O)c4c5c(c13)=[N+]2CCC=5C=N4 (configuration not stated)          4.96 µM
9   Cc1nc2ccccc2c(=O)n1/N=C/c1ccc(N(C)C)cc1         > 100 µM

Can you share its TGI? I mean this molecule: COc1ccc(-c2nc(-c3nc4ccc(C(F)(F)F)cc4[nH]3)c3ccccn23)cc1
> 100 µM

Can you share its TGI? I mean this molecule: C[n+]1c(/C=C/c2ccc(/C=N/NC(=O)c3ccc(C(=O)N/N=C/c4ccc(/C=C/c5cn6ccccc6[n+]5C)cc4)cc3)cc2)cn2ccccc21
> 100 µM

Can you share its TGI? I mean this molecule: O=c1cc(O)c2c(O)cc(O)cc2o1
> 100 µM
